Origin of measurements: patent US20250000869A1

# test.protocol: Solubility screening of Compound 1 in various solvents/solvent systems
# Assay type: physicochemical
# particulars: 8% polysorbate 80 in phosphate buffer + 10% ethanol, pH 6.5, aqueous with cosolvent or surfactant or cyclodextrin, 8% polysorbate 80 in PB + 10% ethanol; PB = Phosphate buffer 10 mmol/L pH 6.5; read-out: Determined Solubility
quantity: solubility

compound="CCCOc1ccc(S(=O)(=O)N2CCC(CCO[N+](=O)[O-])CC2)cc1-c1nn2c(CCC)c(/C=N/O)c(C)c2c(=O)[nH]1 [Compound 1]" quantity=solubility value_observed="0.043 mg/mL"

###

# test.protocol: Solubility screening of Compound 1 in various solvents/solvent systems
# Assay type: physicochemical
# particulars: PEG 400/phosphate buffer (30:70, vol:vol), pH 6.5, aqueous with cosolvent or surfactant or cyclodextrin, PEG 400/PB (30:70, vol:vol); PB = Phosphate buffer 10 mmol/L pH 6.5; read-out: Determined Solubility
quantity: solubility

sample_smiles=CCCOc1ccc(S(=O)(=O)N2CCC(CCO[N+](=O)[O-])CC2)cc1-c1nn2c(CCC)c(/C=N/O)c(C)c2c(=O)[nH]1 value_observed="1 µg/mL"

###

# target.under.test: PDE5 (Homo sapiens)
pIC50: −log10 of the molar value.
quantity: pIC50

sample_smiles=CCCOc1ccc(S(=O)(=O)N2CCC(CCO[N+](=O)[O-])CC2)cc1-c1nn2c(CCC)c(/C=N/O)c(C)c2c(=O)[nH]1 value_observed=8.93

###

# test.protocol: Solubility of Compound 1 in solvent systems comprising PEG400
# Assay type: physicochemical
# particulars: aqueous with cosolvent or surfactant or cyclodextrin; PEG400:benzyl alcohol:phosphate buffer (49:1:50) vol:vol; Phosphate buffer 12 mmol/L pH 6.7; room temperature; read-out: Determined Solubility
quantity: solubility (µg/mL)

compound="CCCOc1ccc(S(=O)(=O)N2CCC(CCO[N+](=O)[O-])CC2)cc1-c1nn2c(CCC)c(/C=N/O)c(C)c2c(=O)[nH]1 [Compound 1]" quantity=solubility value_observed=2.18

###

# test.protocol: Solubility screening of Compound 1 in various solvents/solvent systems
# Format: physicochemical
# particulars: pH 6.5, aqueous with cosolvent or surfactant or cyclodextrin, PEG 400/PB (30:70, vol:vol) + 3% benzyl alcohol; PB = Phosphate buffer 10 mmol/L pH 6.5; read-out: Determined Solubility
quantity: solubility

compound="CCCOc1ccc(S(=O)(=O)N2CCC(CCO[N+](=O)[O-])CC2)cc1-c1nn2c(CCC)c(/C=N/O)c(C)c2c(=O)[nH]1 [Compound 1]" value_observed="8 µg/mL"

###

# test.protocol: Solubility of Compound 1 in solvent systems comprising PEG400
# Assay type: physicochemical
# particulars: aqueous with cosolvent or surfactant or cyclodextrin; PEG400:benzyl alcohol:phosphate buffer (79:1:20) vol:vol; Phosphate buffer 12 mmol/L pH 6.7; room temperature; read-out: Determined Solubility
# Text: A solubility study of Compound 1 in solvent systems comprising PEG400 in various concentrations was effected.
quantity: solubility (µg/mL)

sample_smiles=CCCOc1ccc(S(=O)(=O)N2CCC(CCO[N+](=O)[O-])CC2)cc1-c1nn2c(CCC)c(/C=N/O)c(C)c2c(=O)[nH]1 value_observed=882

###

# test.protocol: Solubility screening of Compound 1 in various solvents/solvent systems
# Format: physicochemical
# particulars: 8% polysorbate 80 in phosphate buffer + 10% MCT, pH 6.5, aqueous with cosolvent or surfactant or cyclodextrin, 8% polysorbate 80 in PB + 10% MCT; PB = Phosphate buffer 10 mmol/L pH 6.5; read-out: Determined Solubility
quantity: solubility (µg/mL)

sample_smiles=CCCOc1ccc(S(=O)(=O)N2CCC(CCO[N+](=O)[O-])CC2)cc1-c1nn2c(CCC)c(/C=N/O)c(C)c2c(=O)[nH]1 quantity=solubility unit_abbrev=µg/mL value_observed=37
